test method notes: cAMP Responsive Elements (CRE) small molecule agonists, cell-based qHTS assay: qHTS cell viability counter screen (AID 2060914);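 note: viability read after 3 h of compound exposure; nearly all actives have a fitted effect of over 50% in size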
run parameters: CRE-bla HEK293T viability, CellTiter-Glo luminescence, 5 h; series mostly up to 92.4 µM
Description: National Center for Advancing Translational Sciences [NCATS] Division of Preclinical Innovation [DPI] U.S. Environmental Protection Agency [EPA] National Institutes of Environmental Health Sciences [NIEHS] National Toxicology Program [NTP] U.S. Food and Drug Administration [FDA] CREB (cyclic-AMP Responsive Element Binding Protein) is a cellular transcription factor. […] The activation of the report gene under culture conditions can be detected by fluorescence intensity. […]
Records with an inconclusive call do not appear. The source made the active and inactive calls. Calls come from the whole dose curve; as a rule, active = well fitted cell-killing curve with a large enough effect in the repeat runs; inconclusive = weak or mixed curves, or effect the other way; inactive = flat fitted curve, though single readings scatter.
property name: outcome

| compound | property name | result |
| --- | --- | --- |
| BrC(Br)C(Br)(Br)Br | outcome | inactive |
| O=P(O)(O)CN(CP(=O)(O)O)CP(=O)(O)O | outcome | inactive |
| ClC1(Cl)C2(Cl)C3(Cl)C4(Cl)C(Cl)(Cl)C5(Cl)C3(Cl)C1(Cl)C5(Cl)C24Cl (centres undefined) | outcome | inactive |
| N#CC(Br)(Br)C(N)=O | outcome | inactive |
| COc1cc(CCN)cc(OC)c1OC | outcome | inactive |
| Nc1ccc(Cc2ccc(N)c(Cl)c2)cc1Cl | outcome | inactive |
| CN1CCc2cc3c(cc2C1O)OCO3 (centres undefined) | outcome | inactive |
| CCC(C)Cl (centres undefined) | outcome | inactive |
| C=CC(=O)OCC(CC)CCCC (centres undefined) | outcome | inactive |
| CCC1(c2ccc(N)cc2)CCC(=O)NC1=O (centres undefined) | outcome | inactive |
| O=S(=O)(c1ccccc1)c1ccccc1 | outcome | inactive |
| CCC[N+](CCC)(CCC)CCC | outcome | inactive |
| Nc1ncc([N+](=O)[O-])s1 | outcome | inactive |
| CCN(CC)C(=O)/C(Cl)=C(\C)OP(=O)(OC)OC | outcome | inactive |
